- Assay text: MTT assay, HEL299 fibroblast
- Type: cell-based
- Condition description: human
This section presents compounds with their documented viability values.
Write the answer as a number in %, unit excluded.

Below, each entry is followed by its recorded viability result.
1. Cc1ccc(C)c(Sc2ccc3c(=O)c4ccccc4sc3c2Cl)c1 = 94.4
2. CC(C)Sc1ccc2c(=O)c3ccccc3sc2c1Cl = 103
3. Cc1cccc(C)c1Sc1ccc2c(=O)c3ccccc3sc2c1Cl = 101
4. COc1ccc(Sc2ccc3c(=O)c4ccccc4sc3c2Cl)cc1 = 109
5. Cc1cc(C)c(CSc2ccc3c(=O)c4ccccc4sc3c2Cl)c(C)c1 = 91.2
6. O=c1c2ccccc2sc2c(Cl)c(Cl)ccc12 = 68.5

I would be grateful if you could share the reported viability for CC(C)c1ccc(Sc2ccc3c(=O)c4ccccc4sc3c2Cl)cc1 .
110

Given O=c1c2ccccc2sc2c(Cl)c(Sc3cccc(Cl)c3)ccc12 , state its recorded viability.
101

Return reported viability; argument: Cc1ccc(Sc2ccc3c(=O)c4ccccc4sc3c2Cl)cc1
98.4

====

- System: A control cell lines
- Assay text: MTT assay, A control cell lines (lung cancer cell)
- Type: cell-based
- Source text: Please refer to Table 1 and FIGS. 4A-4C. According to a MTT assay (Table 1), various cell viabilities of the A control cell lines can be obtained and illustrated in FIG. 4A while the compounds No. 2˜30 are used to treat A control cell lines, wherein A control cell lines are lung cancer cell.
Property measured: cell viabilities of A control cell lines (MTT assay)
Note to self: number, then unit, no commentary.

// below: answered compounds
1) O=c1c2ccccc2sc2c(Cl)c(SC3CCCC3)ccc12 = 108 ± 7.69%
2) CCCSc1ccc2c(=O)c3ccccc3sc2c1Cl = 84.8 ± 2.95%
3) O=c1c2ccccc2sc2c(Cl)c(Sc3ccc(Br)cc3)ccc12 = 104 ± 1.89%

Entry COc1ccc(CSc2ccc3c(=O)c4ccccc4sc3c2Cl)cc1 : reported cell viabilities of A control cell lines (MTT assay) = ?
50.5%

Using the record for CC(C)c1ccccc1Sc1ccc2c(=O)c3ccccc3sc2c1Cl , report its cell viabilities of A control cell lines (MTT assay).
83.5 ± 12.6%

====

- Tested on: IGROV1
- Assay text: NCI in vitro DTP human cell line screen, IGROV1
- Assay type: cell-based
- Condition description: Ovarian Cancer, 1.00E−5 Molar
Measured Growth Percent, listed per entry.
State just the number; it will be interpreted in %.

Worked set:
1) CCCSc1ccc2c(=O)c3ccccc3sc2c1Cl = 91.28
2) O=c1c2ccccc2sc2c(Cl)c(Sc3ccccc3)ccc12 = 91.62
3) Cc1cccc(C)c1Sc1ccc2c(=O)c3ccccc3sc2c1Cl = 98.49

Now let's try a different one.
What does the record list as Growth Percent for COc1cccc(Sc2ccc3c(=O)c4ccccc4sc3c2Cl)c1 ?
108.37

====

- System: SW-620
- Assay text: NCI in vitro DTP human cell line screen, SW-620
- Format: cell-based
- Condition description: Colon Cancer, 1.00E−5 Molar
Property measured: Growth Percent (%)
# number only, unit % dropped from output

1) Cc1cc(C)cc(Sc2ccc3c(=O)c4ccccc4sc3c2Cl)c1 = 104.39
2) O=c1c2ccccc2sc2c(Cl)c(Sc3ccc(Cl)cc3)ccc12 = 75.00
3) COc1ccc(CSc2ccc3c(=O)c4ccccc4sc3c2Cl)cc1 = 106.98

Hello, I am looking for reported Growth Percent with SW-620 for O=c1c2ccccc2sc2c(Cl)c(SCc3ccc(F)cc3)ccc12 . Could you help?
78.63

Query for SW-620: what Growth Percent does the record show for COc1cccc(Sc2ccc3c(=O)c4ccccc4sc3c2Cl)c1 ?
106.14

For SW-620, provide Growth Percent of Cc1cccc(C)c1Sc1ccc2c(=O)c3ccccc3sc2c1Cl please.
105.40

Value wanted: Growth Percent (SW-620) of entry O=c1c2ccccc2sc2c(Cl)c(SCc3ccccc3)ccc12
69.53

Record O=c1c2ccccc2sc2c(Cl)c(Sc3ccccc3)ccc12 : what is its Growth Percent with SW-620?
96.96

Form field - read-out: Growth Percent; system: SW-620; submitted item: CCCSc1ccc2c(=O)c3ccccc3sc2c1Cl
87.67

Query for SW-620: what Growth Percent does the record show for O=c1c2ccccc2sc2c(Cl)c(SCc3ccc(Cl)cc3)ccc12 ?
105.00

====

- Test system: MCF7
- Assay text: NCI in vitro DTP human cell line screen, MCF7
- Type: cell-based
- Condition description: Breast Cancer, 1.00E−5 Molar
Property measured: Growth Percent (%)
Hi! Could you send only the number? It should be in %, unit omitted.

Answered examples (4):
1) O=c1c2ccccc2sc2c(Cl)c(SCc3ccc(F)cc3)ccc12 [No. 24] = 89.93
2) O=c1c2ccccc2sc2c(Cl)c(Sc3ccc(Cl)cc3)ccc12 [No. 29] = 83.90
3) O=c1c2ccccc2sc2c(Cl)c(SCc3ccccc3)ccc12 [No. 23] = 89.62
4) O=c1c2ccccc2sc2c(Cl)c(Sc3ccccc3)ccc12 [No. 6] = 82.14

Now consider a different compound.
Request the reported Growth Percent associated with COc1cccc(Sc2ccc3c(=O)c4ccccc4sc3c2Cl)c1 [No. 16]
88.94

====

- Assay text: MTT assay, HEL299 fibroblast
- Assay type: cell-based
- Condition description: human
# Condition met = viability below 90% (exclusive); Condition not met = viability at/above 90%

1) O=c1c2ccccc2sc2c(Cl)c(SCc3ccc(F)cc3)ccc12 = Condition met

Below: the item to evaluate.
API: query returns whether the molecule falls strictly under 90% in viability. Query: CCc1ccccc1Sc1ccc2c(=O)c3ccccc3sc2c1Cl
Condition not met

====

- System: A3 cell lines
- Assay text: MTT assay, A3 cell lines (lung cancer stem cell)
- Assay type: cell-based
Property measured: cell viabilities of A3 cell lines (MTT assay) (%)
Express your answer in %, writing the number without its unit.

1) CCSc1ccc2c(=O)c3ccccc3sc2c1Cl [No. 2] = 72.7

Record request: cell viabilities of A3 cell lines (MTT assay) value, item Cc1ccc(Sc2ccc3c(=O)c4ccccc4sc3c2Cl)c(C)c1 [No. 10]
59.9

Record request: cell viabilities of A3 cell lines (MTT assay) value, item O=c1c2ccccc2sc2c(Cl)c(Sc3cccc(Cl)c3)ccc12 [No. 30]
92.2

====

- Test system: OVCAR-8
- Assay text: NCI in vitro DTP human cell line screen, OVCAR-8
- Type: cell-based
- Condition description: Ovarian Cancer, 1.00E−5 Molar
Measured Growth Percent accompanies every entry in the list below.
Only the number, expressed in %, is required.

1) O=c1c2ccccc2sc2c(Cl)c(SCc3ccccc3)ccc12 = 82.11
2) O=c1c2ccccc2sc2c(Cl)c(SCc3ccc(Cl)cc3)ccc12 = 86.47
3) O=c1c2ccccc2sc2c(Cl)c(Sc3ccc(Cl)cc3)ccc12 = 64.49
4) O=c1c2ccccc2sc2c(Cl)c(Sc3ccccc3)ccc12 = 94.68

Bench note: what Growth Percent did O=c1c2ccccc2sc2c(Cl)c(SCc3ccc(F)cc3)ccc12 show?
85.39

Entry Cc1cc(C)cc(Sc2ccc3c(=O)c4ccccc4sc3c2Cl)c1 : reported Growth Percent = ?
97.95

What Growth Percent value was documented for this molecule, COc1cccc(Sc2ccc3c(=O)c4ccccc4sc3c2Cl)c1 ?
94.29

For the molecule shown here, Cc1cccc(C)c1Sc1ccc2c(=O)c3ccccc3sc2c1Cl , give the reported Growth Percent.
96.86

I'd like to know its Growth Percent. The molecule in question is CCCSc1ccc2c(=O)c3ccccc3sc2c1Cl
83.50

Bench note: what Growth Percent did COc1ccc(CSc2ccc3c(=O)c4ccccc4sc3c2Cl)cc1 show?
95.58

====

- Tested on: RXF 393
- Assay text: NCI in vitro DTP human cell line screen, RXF 393
- Assay type: cell-based
- Condition description: Renal Cancer, 1.00E−5 Molar
Property measured: Growth Percent (%)
Express your answer in %, writing the number without its unit.

1) O=c1c2ccccc2sc2c(Cl)c(SCc3ccc(Cl)cc3)ccc12 = 109.38
2) COc1cccc(Sc2ccc3c(=O)c4ccccc4sc3c2Cl)c1 = 112.67
3) COc1ccc(CSc2ccc3c(=O)c4ccccc4sc3c2Cl)cc1 = 117.83
4) O=c1c2ccccc2sc2c(Cl)c(Sc3ccc(Cl)cc3)ccc12 = 97.81
5) CCCSc1ccc2c(=O)c3ccccc3sc2c1Cl = 106.97
6) O=c1c2ccccc2sc2c(Cl)c(SCc3ccccc3)ccc12 = 106.84

Form: Entry = O=c1c2ccccc2sc2c(Cl)c(SCc3ccc(F)cc3)ccc12 | System = RXF 393 | Growth Percent = ____
92.20

Requested read-out Growth Percent, target or system RXF 393, entry O=c1c2ccccc2sc2c(Cl)c(Sc3ccccc3)ccc12
110.95

API: value(readout= Growth Percent, system= RXF 393, query= Cc1cc(C)cc(Sc2ccc3c(=O)c4ccccc4sc3c2Cl)c1 )
114.27
